Molecular target: Somatostatin receptor type 5 (Homo sapiens)
Sequence (P35346 whole entry): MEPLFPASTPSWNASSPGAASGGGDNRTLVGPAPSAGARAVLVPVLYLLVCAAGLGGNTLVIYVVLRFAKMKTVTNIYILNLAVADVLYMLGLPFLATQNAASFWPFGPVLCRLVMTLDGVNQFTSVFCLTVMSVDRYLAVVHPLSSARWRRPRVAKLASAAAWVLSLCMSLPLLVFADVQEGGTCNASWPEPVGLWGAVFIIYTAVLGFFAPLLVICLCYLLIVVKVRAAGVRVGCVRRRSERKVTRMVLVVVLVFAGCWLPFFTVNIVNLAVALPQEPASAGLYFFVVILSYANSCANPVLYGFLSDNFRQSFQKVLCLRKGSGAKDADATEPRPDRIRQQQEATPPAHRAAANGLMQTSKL
Test: Displacement of [125I]-[Leu8, DTrp22, Tyr25]SRIF-28 from human cloned sst5 receptor expressed in CHOK1 cells
readout: pIC50
One number for each entry, as −log10 of the molar value.

Study these solved cases before continuing.
[[record]]
compound = "CC(=O)N[C@@H]1SS[C@@H](C(=O)O)NC(=O)[C@H](Cc2ccccc2)NC(=O)[C@H]([C@@H](C)O)NC(=O)[C@H](CCCCN)NC(=O)[C@@H](Cc2c[nH]c3ccccc23)NC(=O)[C@H](Cc2ccccc2)NC(=O)[C@H](Cc2ccccc2)NC1=O"
recorded_value = 7.22

[[record]]
compound = "CC(=O)N[C@@H]1CSS[C@@H](C(=O)O)NC(=O)[C@H](Cc2ccccc2)NC(=O)[C@H]([C@@H](C)O)NC(=O)[C@H](CCCCN)NC(=O)[C@@H](Cc2c[nH]c3ccccc23)NC(=O)[C@H](Cc2ccccc2)NC(=O)[C@H](Cc2ccccc2)NC1=O"
recorded_value = 7.77

[[record]]
compound = "CC(=O)N[C@@H]1SS[C@H](C(=O)O)NC(=O)[C@H](Cc2ccccc2)NC(=O)[C@H]([C@@H](C)O)NC(=O)[C@H](CCCCN)NC(=O)[C@@H](Cc2c[nH]c3ccccc23)NC(=O)[C@H](Cc2ccccc2)NC(=O)[C@H](Cc2ccccc2)NC1=O"
recorded_value = 7.24

[[record]]
compound = "CC(=O)N[C@H]1SSC[C@H](C(=O)O)NC(=O)[C@H](Cc2ccccc2)NC(=O)[C@H]([C@@H](C)O)NC(=O)[C@H](CCCCN)NC(=O)[C@@H](Cc2c[nH]c3ccccc23)NC(=O)[C@H](Cc2ccccc2)NC(=O)[C@H](Cc2ccccc2)NC1=O"
recorded_value = 7.30


Need pIC50 for each of these compounds.
1. CC(=O)N[C@H]1CSSC[C@H](C(=O)O)NC(=O)[C@H](Cc2ccccc2)NC(=O)[C@H]([C@@H](C)O)NC(=O)[C@H](CCCCN)NC(=O)[C@@H](Cc2c[nH]c3ccccc23)NC(=O)[C@H](Cc2ccccc2)NC(=O)[C@H](Cc2ccccc2)NC1=O
2. CC(=O)N[C@@H]1CCSSC[C@@H](C(=O)O)NC(=O)[C@H](Cc2ccccc2)NC(=O)[C@H]([C@@H](C)O)NC(=O)[C@H](CCCCN)NC(=O)[C@@H](Cc2c[nH]c3ccccc23)NC(=O)[C@H](Cc2ccccc2)NC(=O)[C@H](Cc2ccccc2)NC1=O

Reply text:
7.96
7.05

Need pIC50 for each of these compounds.
1. CC(=O)N[C@@H]1SSC[C@@H](C(=O)O)NC(=O)[C@H](Cc2ccccc2)NC(=O)[C@H]([C@@H](C)O)NC(=O)[C@H](CCCCN)NC(=O)[C@@H](Cc2c[nH]c3ccccc23)NC(=O)[C@H](Cc2ccccc2)NC(=O)[C@H](Cc2ccccc2)NC1=O
2. CC(=O)N[C@H]1CSS[C@H](C(=O)O)NC(=O)[C@H](Cc2ccccc2)NC(=O)[C@H]([C@@H](C)O)NC(=O)[C@H](CCCCN)NC(=O)[C@@H](Cc2c[nH]c3ccccc23)NC(=O)[C@H](Cc2ccccc2)NC(=O)[C@H](Cc2ccccc2)NC1=O
3. CC(=O)N[C@H]1CSS[C@@H](C(=O)O)NC(=O)[C@H](Cc2ccccc2)NC(=O)[C@H]([C@@H](C)O)NC(=O)[C@H](CCCCN)NC(=O)[C@@H](Cc2c[nH]c3ccccc23)NC(=O)[C@H](Cc2ccccc2)NC(=O)[C@H](Cc2ccccc2)NC1=O
4. CC(=O)N[C@H]1CCSSC[C@@H](C(=O)O)NC(=O)[C@H](Cc2ccccc2)NC(=O)[C@H]([C@@H](C)O)NC(=O)[C@H](CCCCN)NC(=O)[C@@H](Cc2c[nH]c3ccccc23)NC(=O)[C@H](Cc2ccccc2)NC(=O)[C@H](Cc2ccccc2)NC1=O

Reply text:
8.05
7.30
7.09
7.55

Need pIC50 for each of these compounds.
1. CC(=O)N[C@H]1CSSC[C@@H](C(=O)O)NC(=O)[C@H](Cc2ccccc2)NC(=O)[C@H]([C@@H](C)O)NC(=O)[C@H](CCCCN)NC(=O)[C@@H](Cc2c[nH]c3ccccc23)NC(=O)[C@H](Cc2ccccc2)NC(=O)[C@H](Cc2ccccc2)NC1=O
2. C[C@@H](O)[C@@H]1NC(=O)[C@H](CCCCN)NC(=O)[C@@H](Cc2c[nH]c3ccccc23)NC(=O)[C@H](Cc2ccccc2)NC(=O)[C@H](Cc2ccccc2)NC(=O)C(N)CSSC[C@@H](C(=O)O)NC(=O)[C@H](Cc2ccccc2)NC1=O (single isomer, unassigned)
3. CC(=O)N[C@@H]1CSS[C@H](C(=O)O)NC(=O)[C@H](Cc2ccccc2)NC(=O)[C@H]([C@@H](C)O)NC(=O)[C@H](CCCCN)NC(=O)[C@@H](Cc2c[nH]c3ccccc23)NC(=O)[C@H](Cc2ccccc2)NC(=O)[C@H](Cc2ccccc2)NC1=O

Reply text:
7.59
8.02
7.29

Origin of values: ChEMBL document CHEMBL1150262
